Experiment: chemical genetic growth profiling, strain panel (AID 1159580);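 note: tested at 20 µM; growth read once vehicle control cultures reached saturation at 30 °C; 1 = growth at the plate median or of vehicle wells; lower values mean less growth of the strain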
Conditions: S. cerevisiae deletion strains, growth OD, locus YDR388W, stronger effect = lower value
Hit rate of the full screen: of about 5,500 compounds, about 2,000 (36%) were called active. Another 18% or so got no clear call; they are omitted. The list shows a part of the results.

>  <compound>
COc1cc2c(cc1OC)[C@@H]1C(=O)c3ccc4c(c3O[C@@H]1CO2)C=CC(C)(C)O4

>  <normalized growth>
0.974

$$$$
>  <compound>
COc1ccc2c(c1)O[C@@H]1COc3cc(OC)c(OC)cc3[C@@H]1C2=O

>  <normalized growth>
0.975

$$$$
>  <compound>
O=C(O)C1(O)C[C@@H](O)C(O)[C@H](O)C1 (stereo not given in full)

>  <normalized growth>
1.01

$$$$
>  <compound>
COc1ccc(OC)c(C(O)C(C)N)c1 (stereo not given)

>  <normalized growth>
0.977

$$$$
>  <compound>
COc1cc2c(cc1OC)[C@@H]1C(=O)c3ccc4oc(C(C)C)cc4c3O[C@@H]1CO2

>  <normalized growth>
1.02

$$$$
>  <compound>
COc1cc2c(cc1OC)C1C(=O)c3ccc4c(c3OC1CO2)CCC(C)(C)O4 (stereo not given)

>  <normalized growth>
1

$$$$
>  <compound>
CC(Oc1ccccc1)C(=O)N[C@@H]1C(=O)N2[C@@H]1SC(C)(C)[C@@H]2C(=O)O (stereo not given in full)

>  <normalized growth>
1.02

$$$$
>  <compound>
CN(C)CC/C=C1\c2ccccc2Sc2ccc(Cl)cc21

>  <normalized growth>
0.819

$$$$
>  <compound>
COc1cc2c(cc1OC)[C@@H]1C(=O)c3ccc(O)c(CC=C(C)C)c3O[C@@H]1CO2

>  <normalized growth>
0.982

$$$$
>  <compound>
COc1cc2c(cc1OC)[C@@H]1C(=O)c3ccc(OC)c(CC=C(C)C)c3O[C@@H]1CO2

>  <normalized growth>
1.02

$$$$

* * *

Experiment: chemical genetic growth profiling, strain panel (AID 1159580);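 note: tested at 20 µM; growth read once vehicle control cultures reached saturation at 30 °C; 1 = growth at the plate median or of vehicle wells; lower values mean less growth of the strain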
Conditions: S. cerevisiae deletion strains, growth OD, locus YCL069W, strain vba3, stronger effect = lower value
Among all 5,500 compounds or so, about 2,000 (36%) were called active. About 18% were inconclusive and are not listed. Some of the results follow.

>  <compound>
NC(=O)c1ccc[n+]([C@@H]2O[C@H](COP(=O)([O-])OP(=O)(O)OC[C@H]3O[C@@H](n4cnc5c(N)ncnc54)[C@H](O)[C@@H]3O)[C@@H](O)[C@H]2O)c1

>  <normalized growth>
1.03

$$$$
>  <compound>
C[C@H]1CC2C([C@@H](O)C[C@@]3(C)C2CC[C@]3(O)C(=O)CO)[C@@]2(C)C=CC(=O)C=C12 (some centres undefined)

>  <normalized growth>
0.993

$$$$
>  <compound>
CC(C)(O)[C@@H]1[C@H]2OC(=O)[C@@H]1[C@]1(O)C[C@H]3O[C@]34C(=O)O[C@H]2[C@]14C

>  <normalized growth>
1.01

$$$$
>  <compound>
COc1cc(NS(=O)(=O)c2ccc(N)cc2)nc(OC)n1

>  <normalized growth>
0.985

$$$$

* * *

Test: chemical genetic growth profiling, strain panel (AID 1159580);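 note: tested at 20 µM; growth read once vehicle control cultures reached saturation at 30 °C; 1 = growth at the plate median or of vehicle wells; lower values mean less growth of the strain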
Details: S. cerevisiae deletion strains, growth OD, locus YOR231W, strain MKK1, stronger effect = lower value
In all, about 5,500 compounds went through this assay and about 2,000 (36%) were called active. Inconclusive results (about 18%) are left out. The list shows a part of the results.
Please assign FALSE whenever normalized growth is at or above 1, and TRUE whenever it is below.

>  <molecule>
COc1cc2c(cc1OC)[C@@H]1C(=O)c3ccc(OC)c(CC=C(C)C)c3O[C@@H]1CO2

>  <label>
FALSE

$$$$
>  <molecule>
Cc1ccc(-c2csc(-c3cccnc3)n2)c(C)c1

>  <label>
TRUE

$$$$
>  <molecule>
CCN(CC)CCNC(=O)c1cc(Br)c(N)cc1OC

>  <label>
TRUE

$$$$
>  <molecule>
Cc1ccc(/C=C2\CSc3ccc(F)cc3C2=O)cc1

>  <label>
TRUE

$$$$
>  <molecule>
CC(N)CCCC(C)(C)O (configuration not stated)

>  <label>
FALSE

$$$$
>  <molecule>
CC1=C(C(C)O)C2=NC1C=c1[nH]c(c(C)c1C(C)O)=Cc1[nH]c(c(CCC(=O)O)c1C)C=c1[nH]c(c(C)c1CCC(=O)O)=C2 (configuration not stated)

>  <label>
FALSE

$$$$
>  <molecule>
Cc1ccc2nc(-c3ccc(Cl)cc3)cn2c1

>  <label>
TRUE

$$$$
>  <molecule>
CC1(C)OC(=O)NC1=O

>  <label>
FALSE

$$$$
>  <molecule>
CS(=O)(=O)c1ccc(C2=C(c3ccccc3)C(=O)OC2)cc1

>  <label>
FALSE

$$$$

* * *

Test: chemical genetic growth profiling, strain panel (AID 1159580);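 note: tested at 20 µM; growth read once vehicle control cultures reached saturation at 30 °C; 1 = growth at the plate median or of vehicle wells; lower values mean less growth of the strain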
Conditions: S. cerevisiae deletion strains, growth OD, locus YBR231C, strain swc5, stronger effect = lower value
Out of some 5,500 compounds screened, about 2,000 (36%) were called active. Another 18% or so got no clear call; they are omitted. The list shows a part of the results.

>  <compound>
CN1CCC(=C2c3ccccc3CC(=O)c3sccc32)CC1

>  <normalized growth>
0.964

$$$$
>  <compound>
Cc1cc(O)c(C)c(O)c1C(=O)O

>  <normalized growth>
0.992

$$$$
>  <compound>
NC(=O)c1ccc[n+]([C@@H]2O[C@H](COP(=O)([O-])OP(=O)(O)OC[C@H]3O[C@@H](n4cnc5c(N)ncnc54)[C@H](O)[C@@H]3O)[C@@H](O)[C@H]2O)c1

>  <normalized growth>
1.03

$$$$
>  <compound>
CC1=C(C(C)O)C2=NC1C=c1[nH]c(c(C)c1C(C)O)=Cc1[nH]c(c(CCC(=O)O)c1C)C=c1[nH]c(c(C)c1CCC(=O)O)=C2 (stereo not given)

>  <normalized growth>
0.988

$$$$
>  <compound>
COc1ccc2c(C)cc(=O)oc2c1

>  <normalized growth>
0.987

$$$$
>  <compound>
CC1(C)OC(=O)NC1=O

>  <normalized growth>
1.04

$$$$
>  <compound>
CCOC(=O)c1c(C)cc(O)c(C=O)c1O

>  <normalized growth>
0.548

$$$$
>  <compound>
NC(=O)C(c1ccccc1)(c1ccccc1)C1CCN(CCc2ccc3c(c2)CCO3)C1 (stereo not given)

>  <normalized growth>
0.976

$$$$
>  <compound>
COc1ccc2c3c1O[C@H]1C[C@@H](O)C=C[C@@]31CCN(C)C2

>  <normalized growth>
0.984

$$$$
>  <compound>
COc1ccc2c(c1)OCc1c-2oc2cc(OC)ccc12

>  <normalized growth>
0.909

$$$$
>  <compound>
CN[C@@H](C)[C@@H](O)c1ccccc1

>  <normalized growth>
0.996

$$$$
>  <compound>
CN(C)CC/C=C1\c2ccccc2Sc2ccc(Cl)cc21

>  <normalized growth>
0.676

$$$$
>  <compound>
COc1cc2c(cc1OC)[C@@H]1C(=O)c3ccc(O)c(CC=C(C)C)c3O[C@@H]1CO2

>  <normalized growth>
1.01

$$$$
>  <compound>
C=Cc1c2[nH]c(c1C)C=c1[nH]c(c(C)c1C=C)=CC1N=C(C=c3[nH]c(c(C)c3CCC(=O)O)=C2)C(CCC(=O)O)=C1C (stereo not given)

>  <normalized growth>
1.02

$$$$
>  <compound>
COc1cc2c(cc1OC)[C@@H]1C(=O)c3ccc(OC)c(CC=C(C)C)c3O[C@@H]1CO2

>  <normalized growth>
1.05

$$$$
>  <compound>
C=C1C2CC[C@H]3[C@]4(C)C[C@H](OC5OC(CO)C(OS(=O)(=O)O)C(OS(=O)(=O)O)C5OC(=O)CC(C)C)C[C@@H](C(=O)O)[C@H]4CC[C@]3(C2)[C@H]1O (stereo not given in full)

>  <normalized growth>
1.02

$$$$
>  <compound>
COC1=CC(=O)C[C@@H](C)[C@]12Oc1c(Cl)c(OC)cc(OC)c1C2=O

>  <normalized growth>
1

$$$$
>  <compound>
CCOC(=O)[C@H](CCc1ccccc1)N[C@H]1CCc2ccccc2N(CC(=O)O)C1=O

>  <normalized growth>
0.96

$$$$
>  <compound>
CO[C@H]1[C@H](O)[C@H](O[C@H]2CC[C@]3(C)C4CC[C@]5(C)C(C6=CC(=O)OC6)CC[C@]5(O)C4CC[C@@H]3C2)O[C@@H](C)[C@@H]1O (stereo not given in full)

>  <normalized growth>
1.03

$$$$
>  <compound>
c1ccc(N=Nc2ccccc2)cc1

>  <normalized growth>
0.984

$$$$
>  <compound>
N=c1ccn2c(n1)O[C@@H]1C2O[C@H](CO)[C@H]1O (stereo not given in full)

>  <normalized growth>
0.98

$$$$
>  <compound>
CC(=O)O[C@H]1[C@@H]2[C@@H](OC(=O)Cc3ccccc3)[C@@H](C)C[C@]2(OC(C)=O)C(=O)/C(C)=C/[C@H]2[C@H](CC[C@@]13CO3)C2(C)C

>  <normalized growth>
0.988

$$$$
>  <compound>
Cc1cccc(C)c1OCC(C)N (stereo not given)

>  <normalized growth>
1.02

$$$$
>  <compound>
c1cncc(C2CCCCN2)c1 (stereo not given)

>  <normalized growth>
0.991

$$$$
>  <compound>
Cc1cc(O)c(C=O)c(O)c1C(=O)O

>  <normalized growth>
0.99

$$$$
>  <compound>
CC(=O)[C@H]1CCC2C3CCC4=CC(=O)CC[C@]4(C)C3CC[C@@]21C (stereo not given in full)

>  <normalized growth>
0.951

$$$$
>  <compound>
O=C1C=CC(=C(c2ccc(O)cc2)c2ccc(O)cc2)C=C1

>  <normalized growth>
0.987

$$$$
>  <compound>
CN1CCc2cc3c(cc2[C@H]1C1OC(=O)c2c1ccc1c2OCO1)OCO3 (stereo not given in full)

>  <normalized growth>
0.993

$$$$
>  <compound>
CC1=C(C/C=C(\C)CCC[C@H](C)CCC[C@H](C)CCCC(C)C)C(=O)c2ccccc2C1=O

>  <normalized growth>
0.989

$$$$
>  <compound>
COc1ccc2c(c1OC)C(=O)O[C@H]2[C@H]1c2cc3c(cc2CCN1C)OCO3

>  <normalized growth>
1

$$$$
>  <compound>
CCC(=O)O[C@H]1[C@H](O[C@@H]2[C@@H](C)[C@H](O[C@H]3C[C@@](C)(OC)[C@@H](O)[C@H](C)O3)[C@@H](C)C(=O)O[C@H](CC)[C@@](C)(O)[C@H](O)[C@@H](C)C(=O)[C@H](C)C[C@@]2(C)O)O[C@H](C)C[C@@H]1N(C)C

>  <normalized growth>
0.836

$$$$
>  <compound>
COc1cc2c(cc1OC)[C@@H]1C(=O)c3ccc4oc(C(C)C)cc4c3O[C@@H]1CO2

>  <normalized growth>
0.992

$$$$
>  <compound>
O=C(O)c1c2ccccc2cc2ccccc12

>  <normalized growth>
1.01

$$$$
>  <compound>
CC(NCCc1ccc(O)cc1)C(O)c1ccc(O)cc1 (stereo not given)

>  <normalized growth>
1.01

$$$$
>  <compound>
CN1CCC(=C2c3ccccc3Sc3ccccc32)CC1

>  <normalized growth>
1.05

$$$$
>  <compound>
CC(CCc1ccccc1)NC(C)C(O)c1ccc(O)cc1 (stereo not given)

>  <normalized growth>
1

$$$$
>  <compound>
CCCCCCNC(=O)n1cc(F)c(=O)[nH]c1=O

>  <normalized growth>
0.988

$$$$
>  <compound>
COc1ccc(OC)c(C(O)C(C)N)c1 (stereo not given)

>  <normalized growth>
0.977

$$$$
>  <compound>
C=C(C)C1CNC(C(=O)O)C1CC(=O)O (stereo not given)

>  <normalized growth>
1

$$$$
>  <compound>
CC(C(=O)O)c1cccc(C(=O)c2ccccc2)c1 (stereo not given)

>  <normalized growth>
1

$$$$
